assay: Toxic dose range finding (maximum tolerated dose) in tumor-free mice; conditions: mouse, in vivo
Structures can show the parent of a compound that is named as a salt.
Measurement Type: MTD (mg/kg)
// return numeric value only (unit: mg/kg, not printed)

Lookup: If you can, please state the reported MTD value of O=C1c2c(O)ccc(O)c2C(=O)c2c(NCCNCCO)ccc(NCCNCCO)c21 [Free Mitoxantrone, mitoxantrone hydrochloride] .
Found: 10

###

Test: Change in body weight during efficacy studies
Details: mouse, in vivo
Experimental: Injections were administered in a volume of 200 μL. In order to achieve this volume for the 20 mg/kg dose, the stock mixture was concentrated using Aquacide II. Survival times of the mice were then monitored over a sixty day time course. Increase in life span (ILS %) was calculated as follows: [formula] Maximum tolerated dose was determined by monitoring the weight loss of the mice over a two week period. If the mice lost greater than 30% of the original weight then the mice are terminated.
Counter-ions that a name gives are not always drawn.
Measurement Type: MTD (mg/kg)
Please reply with the bare figure in mg/kg and do not write the unit itself.

Lookup: Request the reported MTD associated with O=C1c2c(O)ccc(O)c2C(=O)c2c(NCCNCCO)ccc(NCCNCCO)c21 [Free Mitoxantrone, mitoxantrone hydrochloride]
Found: 10
